# Tested on: UACC-62
# EXPERIMENT SUMMARY: NCI tumour cell line growth inhibition, 48 h
The source made the active and inactive calls. No stated cut-off is given here; in the data, active = GI50 up to about 1.1 µM and inactive = higher.
READOUT KIND: GI50

A selection of reference data follows.
compound="C/C(=N\\NC(=N)N)C(CN1CCCCC1)C(c1ccccc1)c1c(O)c2ccccc2oc1=O (configuration not stated)" readout_kind=GI50 recorded_value="> 100 µM (inactive)"
compound=CN1CN(c2ccccc2)C2(CCN(Cc3nc4ccccc4s3)CC2)C1=O readout_kind=GI50 recorded_value="16 µM (inactive)"
compound=Cc1cn(Cc2ccccc2CCO)c(=S)[nH]c1=O readout_kind=GI50 recorded_value="> 100 µM (inactive)"

Just so you know, measured GI50 for C=CCc1cc(OC)c2c(c1)C(O)CC(c1ccccc1)O2 (configuration not stated) came out at > 100 µM (inactive)

Record O=C1C2C3CCC(C2C(=O)N1CO)C1C2C(=O)N(CO)C(=O)C2C31 (configuration not stated) , field GI50: 53.1 µM (inactive)

Kindly note the recorded GI50 for COc1cc(/C=C2/SC(c3ccccc3)N(c3ccc(NC(C)=O)cc3)C2=O)cc(OC)c1OC (configuration not stated) , which is > 100 µM (inactive)

Entry COc1ccc2c(c1)CCc1c-2[nH]c2ccc(OC)cc12 ; GI50 = > 100 µM (inactive)

Lab note: CC1=C(C)CC2(C=C(C(C)(C)C)C(=O)C(C(C)(C)C)=C2)SC1 gave GI50 of 29.2 µM (inactive)

Where do the numbers come from? From ChEMBL document CHEMBL1201862.
